The measurements presented in this section are drawn from patent US9221808B2.

target: ROCK1 (Homo sapiens (Human), UniProt Q13464); assay: FRET-based Z'-Lyte kinase assay, ROCK1; assay type: biochemical; settings: read-out: IC50 ± SD (μM) ROCK1
Sequence (Q13464 whole entry, species assumed): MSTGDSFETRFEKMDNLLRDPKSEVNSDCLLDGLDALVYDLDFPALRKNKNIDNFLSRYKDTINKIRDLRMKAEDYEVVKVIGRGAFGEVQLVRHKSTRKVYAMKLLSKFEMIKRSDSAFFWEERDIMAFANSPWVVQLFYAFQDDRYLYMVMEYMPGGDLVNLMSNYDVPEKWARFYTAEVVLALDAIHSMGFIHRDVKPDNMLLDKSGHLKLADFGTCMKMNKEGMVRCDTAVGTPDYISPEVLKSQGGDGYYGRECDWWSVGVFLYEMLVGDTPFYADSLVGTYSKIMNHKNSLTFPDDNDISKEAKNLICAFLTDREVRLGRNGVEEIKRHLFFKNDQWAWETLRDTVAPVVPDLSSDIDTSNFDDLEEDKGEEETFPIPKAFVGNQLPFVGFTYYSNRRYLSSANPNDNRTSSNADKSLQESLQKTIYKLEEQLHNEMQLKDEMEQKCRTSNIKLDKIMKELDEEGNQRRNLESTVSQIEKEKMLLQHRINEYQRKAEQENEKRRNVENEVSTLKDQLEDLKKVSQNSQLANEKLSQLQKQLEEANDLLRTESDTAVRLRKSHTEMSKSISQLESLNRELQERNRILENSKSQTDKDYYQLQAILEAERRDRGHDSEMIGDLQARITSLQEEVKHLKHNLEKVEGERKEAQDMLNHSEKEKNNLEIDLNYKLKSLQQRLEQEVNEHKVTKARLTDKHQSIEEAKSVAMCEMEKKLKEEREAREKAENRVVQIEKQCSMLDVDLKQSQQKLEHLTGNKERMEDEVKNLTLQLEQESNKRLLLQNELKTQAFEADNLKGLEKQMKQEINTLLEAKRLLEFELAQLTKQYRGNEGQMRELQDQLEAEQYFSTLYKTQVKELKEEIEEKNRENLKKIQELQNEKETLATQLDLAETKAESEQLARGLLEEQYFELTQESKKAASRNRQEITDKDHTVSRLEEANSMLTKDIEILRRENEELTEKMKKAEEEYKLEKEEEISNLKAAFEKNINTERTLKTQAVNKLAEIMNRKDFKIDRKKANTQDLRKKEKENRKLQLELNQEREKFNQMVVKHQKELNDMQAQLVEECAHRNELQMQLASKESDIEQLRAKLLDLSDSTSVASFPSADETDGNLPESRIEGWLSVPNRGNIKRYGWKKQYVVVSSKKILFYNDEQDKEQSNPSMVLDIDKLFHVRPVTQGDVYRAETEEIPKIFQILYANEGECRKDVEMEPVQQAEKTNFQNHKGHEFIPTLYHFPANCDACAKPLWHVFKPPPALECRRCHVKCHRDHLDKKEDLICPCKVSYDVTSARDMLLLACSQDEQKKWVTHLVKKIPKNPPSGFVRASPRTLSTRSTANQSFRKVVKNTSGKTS
metric.name: IC50 (µM)
Report only the number, with the unit µM understood.

// IC50 value for `O=C(NCc1ccco1)Nc1nc(-c2ccncc2)cs1` : 1.17

// IC50 value for `CN(Cc1ccccc1)C(=O)Nc1nc(-c2ccncc2)cs1` : 0.11

// IC50 value for `O=C(NCc1cccnc1)Nc1nc(-c2ccncc2)cs1` : 0.91

// IC50 value for `COc1ccc(CNC(=O)Nc2nc(-c3ccncc3)cs2)cc1OC` : 45.1

// IC50 value for `CCCOc1cccc(CNC(=O)Nc2nc(-c3ccncc3)cs2)c1` : 3.36

====

molecular target: UniProt:Q13464; assay: FRET-based Z'-Lyte kinase assay, ROCK1; format: biochemical; conditions: read-out: ROCK1 IC50
metric.name: IC50 (nM)
Report only the number, with the unit nM understood.

Case O=C(NCc1cccc(O)c1)Nc1nc(-c2ccncc2)cs1 [Compound 1bo] , UniProt:Q13464, IC50 recorded as 8

Case O=C(NCc1cccc(O)c1)Nc1nc(-c2ccncc2)cs1 [Compound 1bo-Mes, methanesulfonate] , UniProt:Q13464, IC50 recorded as 12

Case O=C(Nc1nc(-c2ccncc2)cs1)C1COc2ccccc2O1 (stereo not drawn) [CID5056270, reference compound] , UniProt:Q13464, IC50 recorded as 76

====

target: ROCK1 (Homo sapiens (Human)); assay: FRET-based Z'-Lyte kinase assay, ROCK1; format: biochemical; conditions: read-out: ROCK1 % inhibition @ 50 μM; 50 μM compound
Provide the recorded inhibition at 50 µM for the entries that follow.
Report only the number, with the unit % understood.

// inhibition at 50 µM value for O=C(Nc1ccccc1)Nc1nc(-c2ccncc2)cs1 [Compound 6a] : 10.4

// inhibition at 50 µM value for O=C(Nc1nc(-c2ccncc2)cs1)N1CCN(Cc2ccccc2)C[C@@H]1Cc1ccccc1 [Compound 12b] : 24.3

// inhibition at 50 µM value for O=C(Nc1nc(-c2ccncc2)cs1)N1CCN(C(=O)c2ccco2)CC1 [Compound 12c] : 35

// inhibition at 50 µM value for O=C(Nc1ccc(F)cc1)Nc1nc(-c2ccncc2)cs1 [Compound 6c] : 8.06

====

target: ROCK2 (Homo sapiens (Human), UniProt O75116); assay: FRET-based Z'-Lyte kinase assay, ROCK2; format: biochemical; settings: methanesulfonate; read-out: IC50 ± SD (μM) ROCK2
Sequence (O75116 whole entry, species assumed): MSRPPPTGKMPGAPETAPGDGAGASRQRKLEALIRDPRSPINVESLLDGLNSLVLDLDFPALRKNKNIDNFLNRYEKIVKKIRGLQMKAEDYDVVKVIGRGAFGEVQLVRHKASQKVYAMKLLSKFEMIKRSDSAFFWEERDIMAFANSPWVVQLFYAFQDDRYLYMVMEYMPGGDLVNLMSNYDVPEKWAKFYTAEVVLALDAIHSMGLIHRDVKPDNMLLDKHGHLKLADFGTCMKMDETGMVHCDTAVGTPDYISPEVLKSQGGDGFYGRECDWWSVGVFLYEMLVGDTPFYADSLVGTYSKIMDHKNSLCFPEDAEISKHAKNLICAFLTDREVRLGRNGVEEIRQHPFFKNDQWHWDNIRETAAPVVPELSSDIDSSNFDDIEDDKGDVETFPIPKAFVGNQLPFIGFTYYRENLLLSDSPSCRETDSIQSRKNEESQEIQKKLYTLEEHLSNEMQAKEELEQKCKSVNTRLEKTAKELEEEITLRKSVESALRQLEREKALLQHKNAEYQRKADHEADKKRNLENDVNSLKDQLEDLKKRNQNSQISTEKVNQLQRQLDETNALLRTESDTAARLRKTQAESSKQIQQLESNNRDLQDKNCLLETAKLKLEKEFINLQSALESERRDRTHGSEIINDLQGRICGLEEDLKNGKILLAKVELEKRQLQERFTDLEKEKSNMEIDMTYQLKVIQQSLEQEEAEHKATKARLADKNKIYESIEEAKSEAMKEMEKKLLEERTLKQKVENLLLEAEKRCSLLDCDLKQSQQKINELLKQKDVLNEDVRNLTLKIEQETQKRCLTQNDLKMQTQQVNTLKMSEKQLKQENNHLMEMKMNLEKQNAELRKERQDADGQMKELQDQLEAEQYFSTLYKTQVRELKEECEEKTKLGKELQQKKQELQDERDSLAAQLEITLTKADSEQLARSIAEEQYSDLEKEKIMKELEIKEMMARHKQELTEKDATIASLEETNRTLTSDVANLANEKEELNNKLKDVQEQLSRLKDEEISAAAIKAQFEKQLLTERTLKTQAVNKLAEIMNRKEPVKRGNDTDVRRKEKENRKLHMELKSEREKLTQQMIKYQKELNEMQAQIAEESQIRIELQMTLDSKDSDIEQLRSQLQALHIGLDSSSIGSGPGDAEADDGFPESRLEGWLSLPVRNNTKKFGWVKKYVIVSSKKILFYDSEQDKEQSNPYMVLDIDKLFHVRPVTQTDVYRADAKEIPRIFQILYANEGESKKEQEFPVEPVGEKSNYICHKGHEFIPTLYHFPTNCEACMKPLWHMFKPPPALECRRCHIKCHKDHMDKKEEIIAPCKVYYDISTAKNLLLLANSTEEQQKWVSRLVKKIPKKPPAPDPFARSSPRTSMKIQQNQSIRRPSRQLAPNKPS
metric.name: IC50 (µM)
Report only the number, with the unit µM understood.

// IC50 value for COc1cccc(CNC(=O)Nc2nc(-c3ccncc3)cs2)c1 [Compound 1af-Mes, methanesulfonate] : 0.01

====

Provide the recorded IC50 for the entries that follow.
target: ROCK1 (Homo sapiens (Human), UniProt Q13464); experiment: FRET-based Z'-Lyte kinase assay, ROCK1; type: biochemical; settings: read-out: IC50 ± SD (μM) ROCK1;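 note: kinase phosphorylates a coumarin/fluorescein-labelled FRET peptide, then a protease cleaves unphosphorylated peptide, progress read as donor to acceptor emission ratio after 400 nm excitation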
Report only the number, with the unit µM understood.

// IC50 value for CC[C@@H](NC(=O)Nc1nc(-c2ccncc2)cs1)c1ccccc1 [Compound 1be] : 0.09

// IC50 value for O=C(NCc1ccc(O)cc1)Nc1nc(-c2ccncc2)cs1 [Compound 1ax] : 0.38

// IC50 value for CC(C)Oc1cccc(CNC(=O)Nc2nc(-c3ccncc3)cs2)c1 [Compound 1bu] : 13

// IC50 value for O=C(NCc1cc(F)cc(F)c1)Nc1nc(-c2ccncc2)cs1 [Compound 1cd] : 4.07

// IC50 value for O=C(Nc1nc(-c2ccncc2)cs1)N[C@H]1CCCc2ccccc21 [Compound 1cw] : 6.25

====

Provide the recorded IC50 for the entries that follow.
biological target: ROCK2 (Homo sapiens (Human), UniProt O75116); experiment: FRET-based Z'-Lyte kinase assay, ROCK2; type: biochemical; conditions: read-out: IC50 ± SD (μM) ROCK2
Report only the number, with the unit µM understood.

Case O=C(Nc1nc(-c2ccncc2)cs1)N[C@H]1CCCc2ccccc21 [Compound 1cw] , ROCK2 (Homo sapiens (Human), UniProt O75116), IC50 recorded as 3.35

Case COc1ccccc1CNC(=O)Nc1nc(-c2ccncc2)cs1 [Compound 1ad] , ROCK2 (Homo sapiens (Human), UniProt O75116), IC50 recorded as 0.47

Case COc1ccc(CNC(=O)Nc2nc(-c3ccncc3)cs2)cc1OC [Compound 1ck] , ROCK2 (Homo sapiens (Human), UniProt O75116), IC50 recorded as 25

Case O=C(NCc1ccccn1)Nc1nc(-c2ccncc2)cs1 [Compound 1ap] , ROCK2 (Homo sapiens (Human), UniProt O75116), IC50 recorded as 1.44

Case O=C(NCc1ccc(F)cc1)Nc1nc(-c2ccncc2)cs1 [Compound 1ak] , ROCK2 (Homo sapiens (Human), UniProt O75116), IC50 recorded as 0.19

Case CC[C@@H](NC(=O)Nc1nc(-c2ccncc2)cs1)c1ccccc1 [Compound 1be] , ROCK2 (Homo sapiens (Human), UniProt O75116), IC50 recorded as 0.03

Case COc1cccc(CNC(=O)Nc2nc(-c3ccncc3)cs2)c1OC [Compound 1bc] , ROCK2 (Homo sapiens (Human), UniProt O75116), IC50 recorded as 19.7

Case O=C(NCc1ccccc1Cl)Nc1nc(-c2ccncc2)cs1 [Compound 1ae] , ROCK2 (Homo sapiens (Human), UniProt O75116), IC50 recorded as 0.11

Case COc1cccc([C@H](C)NC(=O)Nc2nc(-c3ccncc3)cs2)c1 [Compound 1bg] , ROCK2 (Homo sapiens (Human), UniProt O75116), IC50 recorded as 3.25

Case O=C(Nc1nc(-c2ccncc2)cs1)N[C@H]1CCc2ccccc21 [Compound 1cu] , ROCK2 (Homo sapiens (Human), UniProt O75116), IC50 recorded as 1.83

Case CC(NC(=O)Nc1nc(-c2ccncc2)cs1)c1cccc(F)c1 (stereo not drawn) [Compound 1ca] , ROCK2 (Homo sapiens (Human), UniProt O75116), IC50 recorded as 0.28

Case COC[C@H](NC(=O)Nc1nc(-c2ccncc2)cs1)c1ccccc1 [Compound 1bk] , ROCK2 (Homo sapiens (Human), UniProt O75116), IC50 recorded as 11.5

====

target: ROCK2 (Homo sapiens (Human)); assay: FRET-based Z'-Lyte kinase assay, ROCK2; format: biochemical; conditions: read-out: IC50 ± SD (μM) ROCK2
Counter-ions that a name gives are not always drawn.
Classify by IC50. Ranges: low (below 0.1 µM), middle (0.1 µM to below 2 µM), high (2 µM or more)

Asked: Hello team, could you let me know which band the following molecule falls into: `O=C(NCc1ccc(Cl)cc1Cl)Nc1nc(-c2ccncc2)cs1`
Given back: middle

Asked: Hello team, could you let me know which band the following molecule falls into: `COc1ccc([C@@H](C)NC(=O)Nc2nc(-c3ccncc3)cs2)cc1`
Given back: high

Asked: Hello team, could you let me know which band the following molecule falls into: `COc1cccc(CN(C)C(=O)Nc2nc(-c3ccncc3)cs2)c1`
Given back: low

Asked: Hello team, could you let me know which band the following molecule falls into: `Cc1cccc(CNC(=O)Nc2nc(-c3ccncc3)cs2)c1`
Given back: middle

Asked: Hello team, could you let me know which band the following molecule falls into: `O=C(NCc1cc(F)cc(F)c1)Nc1nc(-c2ccncc2)cs1`
Given back: middle

Asked: Hello team, could you let me know which band the following molecule falls into: `O=C(NCc1cccc2[nH]ccc12)Nc1nc(-c2ccncc2)cs1`
Given back: high

Asked: Hello team, could you let me know which band the following molecule falls into: `O=C(NCc1cccc(OC(F)F)c1)Nc1nc(-c2ccncc2)cs1`
Given back: middle

Asked: Hello team, could you let me know which band the following molecule falls into: `CC(C)Oc1cccc(CNC(=O)Nc2nc(-c3ccncc3)cs2)c1`
Given back: high

Asked: Hello team, could you let me know which band the following molecule falls into: `COCCOc1cccc(CNC(=O)Nc2nc(-c3ccncc3)cs2)c1`
Given back: middle

Asked: Hello team, could you let me know which band the following molecule falls into: COc1ccc(CNC(=O)Nc2nc(-c3ccncc3)cs2)cc1 [Compound 1am-Mes, methanesulfonate]
Given back: high

Asked: Hello team, could you let me know which band the following molecule falls into: `NC(=O)[C@H](NC(=O)Nc1nc(-c2ccncc2)cs1)c1ccccc1`
Given back: high

Asked: Hello team, could you let me know which band the following molecule falls into: `COC[C@@H](NC(=O)Nc1nc(-c2ccncc2)cs1)c1ccccc1`
Given back: low

Asked: Hello team, could you let me know which band the following molecule falls into: `CC[C@H](NC(=O)Nc1nc(-c2ccncc2)cs1)c1ccccc1`
Given back: high

Asked: Hello team, could you let me know which band the following molecule falls into: `COc1cccc(CNC(=O)N(C)c2nc(-c3ccncc3)cs2)c1`
Given back: low

Asked: Hello team, could you let me know which band the following molecule falls into: `Cc1ccccc1CNC(=O)Nc1nc(-c2ccncc2)cs1`
Given back: middle

Asked: Hello team, could you let me know which band the following molecule falls into: `O=C(NCCc1ccccc1)Nc1nc(-c2ccncc2)cs1`
Given back: middle

Asked: Hello team, could you let me know which band the following molecule falls into: `NC(=O)[C@@H](NC(=O)Nc1nc(-c2ccncc2)cs1)c1ccccc1`
Given back: low

Asked: Hello team, could you let me know which band the following molecule falls into: `O=C(NCc1cccnc1)Nc1nc(-c2ccncc2)cs1`
Given back: middle

Asked: Hello team, could you let me know which band the following molecule falls into: `O=C(NCc1ccccc1O)Nc1nc(-c2ccncc2)cs1`
Given back: middle

Asked: Hello team, could you let me know which band the following molecule falls into: `O=C(Nc1nc(-c2ccncc2)cs1)N[C@@H]1CCc2ccccc21`
Given back: high

Asked: Hello team, could you let me know which band the following molecule falls into: `O=C(NCc1ccc(Cl)cc1)Nc1nc(-c2ccncc2)cs1`
Given back: middle

Asked: Hello team, could you let me know which band the following molecule falls into: `C[C@@H](NC(=O)Nc1nc(-c2ccncc2)cs1)c1ccccc1`
Given back: low

Asked: Hello team, could you let me know which band the following molecule falls into: `O=C(NCc1ccc(O)cc1)Nc1nc(-c2ccncc2)cs1`
Given back: middle

Asked: Hello team, could you let me know which band the following molecule falls into: `CNc1cccc(CNC(=O)Nc2nc(-c3ccncc3)cs2)c1`
Given back: middle

Asked: Hello team, could you let me know which band the following molecule falls into: `O=C(Nc1nc(-c2ccncc2)cs1)Nc1ccccc1Cl`
Given back: high

Asked: Hello team, could you let me know which band the following molecule falls into: `C[C@@H](c1ccccc1)N(C)C(=O)Nc1nc(-c2ccncc2)cs1`
Given back: high

Asked: Hello team, could you let me know which band the following molecule falls into: CC(=O)Nc1cccc(CNC(=O)Nc2nc(-c3ccncc3)cs2)c1 [Compound 1ci, hydrochloride]
Given back: middle
